system: Rat hepatocyte; test: Metabolic stability assay (rat hepatocyte Clint); assay type: in vitro ADME; conditions: 1 μM compound, cryopreserved hepatocytes 1 million cells per mL
MEASUREMENT_KIND: Rat hepatocyte CLint (μl/min/10^−6 cells)

[a] Cc1cc2ncnn2cc1Nc1ncc2c(C)nn(C3CCOC(C)C3)c2n1 (single isomer, unassigned) [Example 35]
[b] CCC(C)n1nc(C)c2cnc(Nc3cn4ncnc4cc3C)nc21 (single isomer, unassigned) [Example 62]
[c] Cc1cc2ncnn2cc1Nc1ncc2c(n1)c([C@H]1CC[C@H](OC(F)F)CC1)nn2C
Asked: List by increasing Rat hepatocyte CLint (μl/min/10^−6 cells). Order the labels as requested and list them.
Given back: b, a, c
(b: 11.7 μl/min/10^−6 cells, a: 21.7 μl/min/10^−6 cells, c: 70.3 μl/min/10^−6 cells)
